Every entry's value here was drawn from patent US11807625B2.

Test: PK of compound of Formula (Ia) after single intramuscular dose of solution formulations in Wistar Han rats
Assay type: in vivo
Details: male, Wistar Han, rat, plasma, intramuscular, 100 mg/kg, Solution J (~400 mg/mL, poloxamer 188); IM 100 mg/kg; Wistar Han rats; mean, n = 4; 48.0 h; read-out: Plasma concentration, Mean
parameter.measured: concentration at 48 h (nM)
Number only, in nM; omit the unit.

Lookup: concentration at 48 h lookup needed for CC(C)(C#Cc1ccc(-c2ccc(Cl)c3c(NS(C)(=O)=O)nn(CC(F)(F)F)c23)c([C@H](Cc2cc(F)cc(F)c2)NC(=O)Cn2nc(C(F)(F)F)c3c2C(F)(F)[C@@H]2C[C@H]32)n1)S(C)(=O)=O [compound of Formula (Ia)] , thanks.
Found: 558

###

Experiment: PK of compound of Formula (Ia) after single subcutaneous dose of solution formulations in Wistar Han rats
Format: in vivo
Settings: male, Wistar Han, rat, plasma, sc, 50 mg/kg, 3360 h; mean, n = 5 rats; SC 50 mg/kg; solution U, 500 mg/mL
parameter.measured: concentration at 3360 h
Could you kindly put the unit after your number?

Lookup: concentration at 3360 h lookup needed for `CC(C)(C#Cc1ccc(-c2ccc(Cl)c3c(NS(C)(=O)=O)nn(CC(F)(F)F)c23)c([C@H](Cc2cc(F)cc(F)c2)NC(=O)Cn2nc(C(F)(F)F)c3c2C(F)(F)[C@@H]2C[C@H]32)n1)S(C)(=O)=O` , thanks.
Found: 88 nM

###

Assay: PK of compound of Formula (Ia) after single subcutaneous dose of solution formulations in Wistar Han rats
Assay type: in vivo
Conditions: male, Wistar Han, rat, plasma, sc, 50 mg/kg, Wistar Han rats, SC 50 mg/kg, 400 mg/mL solution W (5.00% ethanol, 1.57% poloxamer 188), 2688 h, Mean n = 3
parameter.measured: concentration at 2688 h (nM)
Number only, in nM; omit the unit.

Lookup: concentration at 2688 h lookup needed for CC(C)(C#Cc1ccc(-c2ccc(Cl)c3c(NS(C)(=O)=O)nn(CC(F)(F)F)c23)c([C@H](Cc2cc(F)cc(F)c2)NC(=O)Cn2nc(C(F)(F)F)c3c2C(F)(F)[C@@H]2C[C@H]32)n1)S(C)(=O)=O [compound of Formula (Ia)] , thanks.
Found: 173

###

Test: PK of compound of Formula (Ia) after single subcutaneous dose of solution formulations in Wistar Han rats
Format: in vivo
Conditions: male, Wistar Han, rat, plasma, sc, 50 mg/kg, Wistar Han rats, SC 50 mg/kg, 400 mg/mL solution W (5.00% ethanol, 1.57% poloxamer 188), 96.0 h, Mean n = 3
Method: Formulations containing the compound of Formula (Ia), or a pharmaceutically acceptable salt thereof, were prepared as solutions and optionally administered subcutaneously or intramuscularly to rats, rabbits, and/or dogs. A solution of about 400 mg/mL of the compound of Formula (Ia) having 19.14 w/w % water, 40.66 w/w % PEG 300, 35.20 w/w % of a sodium salt of a compound of Formula (Ia), and 5.00% ethanol was prepared. […]
parameter.measured: concentration at 96 h (nM)
Number only, in nM; omit the unit.

Lookup: concentration at 96 h lookup needed for CC(C)(C#Cc1ccc(-c2ccc(Cl)c3c(NS(C)(=O)=O)nn(CC(F)(F)F)c23)c([C@H](Cc2cc(F)cc(F)c2)NC(=O)Cn2nc(C(F)(F)F)c3c2C(F)(F)[C@@H]2C[C@H]32)n1)S(C)(=O)=O [compound of Formula (Ia)] , thanks.
Found: 138

###

Assay: PK of compound of Formula (Ia) after single subcutaneous dose of solution formulations in beagle dogs
Assay type: in vivo
Conditions: male, beagle, dog, plasma, sc, 12 mg/kg, beagle dogs, SC 12 mg/kg, 400 mg/mL solution Y (water, PEG 300), 96.0 h, animals #1-#3
parameter.measured: concentration at 96 h (nM)
Number only, in nM; omit the unit.

Lookup: concentration at 96 h lookup needed for `CC(C)(C#Cc1ccc(-c2ccc(Cl)c3c(NS(C)(=O)=O)nn(CC(F)(F)F)c23)c([C@H](Cc2cc(F)cc(F)c2)NC(=O)Cn2nc(C(F)(F)F)c3c2C(F)(F)[C@@H]2C[C@H]32)n1)S(C)(=O)=O` , thanks.
Found: 73.8

###

Assay: PK of compound of Formula (Ia) after single subcutaneous dose of solution formulations in Wistar Han rats
Type: in vivo
Conditions: male, Wistar Han, rat, plasma, sc, 50 mg/kg, male Wistar Han rats, single SC 50 mg/kg, 400 mg/mL solution AA (6.25% poloxamer 188), mean ± SD, n = 4; read-out: AUC0-336 h
Description: Formulations containing the compound of Formula (Ia), or a pharmaceutically acceptable salt thereof, were prepared as solutions and optionally administered subcutaneously or intramuscularly to rats, rabbits, and/or dogs. A solution of about 400 mg/mL of the compound of Formula (Ia) having 19.14 w/w % water, 40.66 w/w % PEG 300, 35.20 w/w % of a sodium salt of a compound of Formula (Ia), and 5.00% ethanol was prepared. […]
parameter.measured: AUC(0-t)
Could you kindly put the unit after your number?

Lookup: AUC(0-t) lookup needed for `CC(C)(C#Cc1ccc(-c2ccc(Cl)c3c(NS(C)(=O)=O)nn(CC(F)(F)F)c23)c([C@H](Cc2cc(F)cc(F)c2)NC(=O)Cn2nc(C(F)(F)F)c3c2C(F)(F)[C@@H]2C[C@H]32)n1)S(C)(=O)=O` , thanks.
Found: 55.2 µM·h

###

Test: PK of compound of Formula (Ia) after single subcutaneous dose of solution formulations in Wistar Han rats
Assay type: in vivo
Conditions: male, Wistar Han, rat, plasma, sc, 50 mg/kg, 3024 h; mean, n = 3 rats; SC 50 mg/kg; solution R, 400 mg/mL
parameter.measured: concentration at 3024 h
Could you kindly put the unit after your number?

Lookup: concentration at 3024 h lookup needed for CC(C)(C#Cc1ccc(-c2ccc(Cl)c3c(NS(C)(=O)=O)nn(CC(F)(F)F)c23)c([C@H](Cc2cc(F)cc(F)c2)NC(=O)Cn2nc(C(F)(F)F)c3c2C(F)(F)[C@@H]2C[C@H]32)n1)S(C)(=O)=O [compound of Formula (Ia)] , thanks.
Found: 122 nM

###

Experiment: PK of compound of Formula (Ia) after single subcutaneous dose of solution formulations in beagle dogs
Type: in vivo
Conditions: male, beagle, dog, plasma, sc, 12 mg/kg, male beagle dogs, single SC 12 mg/kg, 400 mg/mL solution Z (3.13% poloxamer 188), mean ± SD, n = 3; read-out: AUC0-1008 h
parameter.measured: AUC(0-t) (µM·h)
Number only, in µM·h; omit the unit.

Lookup: AUC(0-t) lookup needed for CC(C)(C#Cc1ccc(-c2ccc(Cl)c3c(NS(C)(=O)=O)nn(CC(F)(F)F)c23)c([C@H](Cc2cc(F)cc(F)c2)NC(=O)Cn2nc(C(F)(F)F)c3c2C(F)(F)[C@@H]2C[C@H]32)n1)S(C)(=O)=O [compound of Formula (Ia)] , thanks.
Found: 125

###

Test: PK of compound of Formula (Ia) after single subcutaneous dose of solution formulations in Wistar Han rats
Type: in vivo
Settings: male, Wistar Han, rat, plasma, sc, 50 mg/kg, 336 h; mean, n = 3 rats; SC 50 mg/kg; solution V, 300 mg/mL
Method: Formulations containing the compound of Formula (Ia), or a pharmaceutically acceptable salt thereof, were prepared as solutions and optionally administered subcutaneously or intramuscularly to rats, rabbits, and/or dogs. A solution of about 400 mg/mL of the compound of Formula (Ia) having 19.14 w/w % water, 40.66 w/w % PEG 300, 35.20 w/w % of a sodium salt of a compound of Formula (Ia), and 5.00% ethanol was prepared. […]
parameter.measured: concentration at 336 h

Lookup: concentration at 336 h lookup needed for `CC(C)(C#Cc1ccc(-c2ccc(Cl)c3c(NS(C)(=O)=O)nn(CC(F)(F)F)c23)c([C@H](Cc2cc(F)cc(F)c2)NC(=O)Cn2nc(C(F)(F)F)c3c2C(F)(F)[C@@H]2C[C@H]32)n1)S(C)(=O)=O` , thanks.
Found: 0.201 µM

###

Assay: PK of compound of Formula (Ia) after single intramuscular dose of solution formulations in Wistar Han rats
Format: in vivo
Settings: male, Wistar Han, rat, plasma, intramuscular, 100 mg/kg, Solution J (~400 mg/mL, poloxamer 188); IM 100 mg/kg; Wistar Han rats; individual animals #1-#4; 3.00 h; read-out: Plasma concentration
parameter.measured: concentration at 3 h (nM)
Number only, in nM; omit the unit.

Lookup: concentration at 3 h lookup needed for `CC(C)(C#Cc1ccc(-c2ccc(Cl)c3c(NS(C)(=O)=O)nn(CC(F)(F)F)c23)c([C@H](Cc2cc(F)cc(F)c2)NC(=O)Cn2nc(C(F)(F)F)c3c2C(F)(F)[C@@H]2C[C@H]32)n1)S(C)(=O)=O` , thanks.
Found: 463
